Test system: STK39
recordedConditions: concentration: 1 μM, replicates: in singlicate; n = 1;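 also: KINOMEscan kinase panel screen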
endpoint: %Inh (%)

> print(dat)
                                   compound  endpoint  observedmeasurement
1  COc1ccc(CNC(=O)NC2CCN(c3ccnc(Nc4ccc(OC)cc4)n3)C2)cc1 (centres unmarked)      %Inh                    5
2  C[C@@H](Oc1cc(-n2cnc3ccc(NC(=O)NC(C)(C)C)cc32)sc1C(N)=O)c1ccccc1Cl      %Inh                    0
3  Fc1ccc(-c2nn3c(OCC(F)(F)F)cccc3c2-c2ccncc2)cc1      %Inh                    3
4  COc1ccc(Nc2ncc(C#N)c(Nc3ccccc3C(N)=O)n2)cc1N1CCN(C)CC1.Cl      %Inh                  100
5                CCCCCc1nc2c(N)ncnc2n1CCCCC      %Inh                    7

* * *

System: WNK1
recordedConditions: concentration: 1 μM, replicates: in singlicate; n = 1
endpoint: %Inh (%)

> print(dat)
                                   compound  observedmeasurement
1                        CNc1ncnc2[nH]ncc12                    0
2  Fc1ccc(-c2ncn(CCCN3CCOCC3)c2-c2cccnc2)cc1                    8
3  CC(=O)Nc1ccc(COc2ccc(Nc3ccnc4cc(-c5ccccn5)ccc34)cc2)cc1.Cl                   10
4                CCCCCc1nc2c(N)ncnc2n1CCCCC                    7
5  NCC(NC(=O)c1cc(-c2cn[nH]c2)c(-c2ccnc3[nH]ccc23)s1)c1ccccc1.O=C(O)C(F)(F)F.O=C(O)C(F)(F)F (stereo not drawn)                    6
6  COc1ccc(Nc2nccc(N3CCC(NC(=O)Nc4cccc(C(C)=O)c4)C3)n2)cc1 (stereo not drawn)                    4
7  NCCNS(=O)(=O)c1ccc(-c2ccnc3[nH]ccc23)cc1                    0
8  Cc1c(Cn2c(C)nn3c(=O)cc(N4CCOC(C)C4)nc23)cccc1C(F)(F)F (stereo not drawn)                    4
9  Cc1cccc(-c2nc(-c3ccc(S(C)(=O)=O)cc3)sc2-c2ccncc2)c1                    0

* * *

# %Inh values compiled below
Test system: NEK7
recordedConditions: concentration: 1 μM, replicates: in singlicate; n = 1
endpoint: %Inh (%)

> print(dat)
                                    compound  unitofmeasurement  observedmeasurement
 1  COc1ccc(Nc2ncc(C#N)c(Nc3ccccc3C(N)=O)n2)cc1N1CCN(C)CC1.Cl                  %                 97.4
 2  Cc1c2ccc(N(C)c3ccnc(Nc4cccc(S(N)(=O)=O)c4)n3)cc2nn1Cc1ccccc1.Cl.Cl                  %                    0
 3  CC(C)(CN)c1nc(-c2ccc(Cl)c(O)c2)c(-c2ccncc2)[nH]1.O=C(O)C(F)(F)F                  %                    0
 4  NS(=O)(=O)CCc1cccc(Nc2nccc(-c3c(-c4cccc(NC(=O)c5c(F)cccc5F)c4)nn4ccccc34)n2)c1                  %                   11
 5  N#Cc1c(N2CCOCC2)sc(-c2ccn[nH]2)c1-c1ccc(Cl)cc1                  %                    0
 6  COc1cc2ncn(-c3cc(OCc4sccc4Cl)c(C(N)=O)s3)c2cc1OC                  %                    0
 7  COc1cc2c(cc1OCCN1CCN(C)CC1)ncc1c3ccc(C#N)cc3[nH]c21                  %                    0
 8                        CCn1cnc2c(N)ncnc21                  %                   14
 9  COc1cc2c(cc1OC[C@@H](O)CO)ncc1c3ccc(C#N)cc3[nH]c21                  %                    0
10      CSc1ccc(-c2cc3ncnc(SCC(=O)O)c3s2)cc1                  %                    8
11  Nc1nccc(-c2c(-c3ccc(F)cc3)ncn2C2CCN(CC(F)(F)F)CC2)n1                  %                    0
12  CCc1ccnc(/C=C/c2n[nH]c3cc(Sc4ccccc4C(=O)NC)ccc23)c1                  %                    0
13  O=C(Nc1cccc(-c2nn3ncccc3c2-c2ccnc(Nc3cccc(C(F)(F)F)c3)n2)c1)c1c(F)cccc1F                  %                    0
14  Cc1nnc(-c2ccc3occ(-c4ccc(C(C)O)cc4)c3c2)o1 (stereo not shown)                  %                    0
15  O=C(NOCC1CC1)c1ccc(F)c(F)c1Nc1ccc(I)cc1Cl                  %                    0
16   O=c1cc(N2CCOCC2)nc2n(Cc3cccc(F)c3)ccn12                  %                    0
17  Fc1ccc(-c2ncn(CCCN3CCOCC3)c2-c2ccccn2)cc1                  %                    0
18  Cc1ccc(NC(=O)c2ccnc(N3CCN(C)CC3)c2)cc1-c1ccc(C(=O)NCC2CC2)cc1                  %                    0
19  Fc1ccc(-c2nn3c(OCC(F)(F)F)cccc3c2-c2ccncc2)cc1                  %                    0

* * *

System: KIT-autoinhibited
recordedConditions: concentration: 1 μM, replicates: in singlicate; n = 1
endpoint: %Inh (%)

> print(dat)
                                   compound  unitofmeasurement  observedmeasurement
1  Cc1nnc(-c2ccc3occ(-c4ccc(C(C)O)cc4)c3c2)o1 (centres unmarked)                  %                    0
2  O=C1Cc2cc(Nc3nc(NCc4cccc(S(=O)(=O)C(F)(F)F)c4)ncc3C(F)(F)F)ccc2N1                  %                    0
3  O=C(NCCNc1ccnc(Nc2ccc(F)cc2)n1)c1cc2ccccc2s1                  %                    0
4  Cn1cc(-c2ccc3c(c2)CCN3C(=O)Cc2ccccc2Cl)c2c(N)ncnc21                  %                    4
5  N#Cc1c(N2CCOCC2)sc(-c2ccn[nH]2)c1-c1ccc(Cl)cc1                  %                    1

* * *

Tested on: SRPK3
recordedConditions: concentration: 1 μM, replicates: in singlicate; n = 1
endpoint: %Inh (%)

> print(dat)
                               samplesmiles  observedmeasurement
1  O=C(NCCCN1CCOCC1)c1cccc(Nc2nccc(Nc3ccc(Oc4ccccc4)cc3)n2)c1                    0
2  NS(=O)(=O)c1cccc(-c2ccc3ncc(N4CCOCC4)nc3c2)c1                    0
3  Cc1c2ccc(N(C)c3ccnc(Nc4cccc(S(N)(=O)=O)c4)n3)cc2nn1Cc1ccccc1.Cl.Cl                    2
4      c1ccc(-c2n[nH]cc2-c2ccnc3ccccc23)nc1                    0
5  C[C@@H](Oc1cc(-n2cnc3ccc(NC(=O)NC(C)(C)C)cc32)sc1C(N)=O)c1ccccc1Cl                    0
6  COc1ccc(COc2cc(-n3cnc4ccccc43)sc2C(N)=O)cc1                   17

* * *

System: WNK2
recordedConditions: concentration: 1 μM, replicates: in singlicate; n = 1
endpoint: %Inh (%)

> print(dat)
                                   compound  unitofmeasurement  observedmeasurement
1  Cc1c2ccc(N(C)c3ccnc(Nc4cccc(S(N)(=O)=O)c4)n3)cc2nn1Cc1ccccc1.Cl.Cl                  %                    0
2  NS(=O)(=O)c1cccc(-c2ccc3ncc(N4CCOCC4)nc3c2)c1                  %                    0
3  Cc1ccc(C(=O)NCC(N)=O)cc1-n1c(C)cc(OCc2ccc(F)cc2F)c(Br)c1=O                  %                    5
4  Cc1cccc(-c2nc(-c3ccc(S(C)(=O)=O)cc3)sc2-c2ccncc2)c1                  %                    0
5  O=C(NOCC1CC1)c1ccc(F)c(F)c1Nc1ccc(I)cc1Cl                  %                    0
6   Cc1cccc(Cn2ccn3c(=O)cc(N4CCOCC4)nc23)c1                  %                    6
7  COc1ccc(Nc2nccc(N3CCC(NC(=O)Nc4cc(C)ccc4C)C3)n2)cc1 (stereo not drawn)                  %                   59
8  O=c1cc(N2CCOCC2)nc2n(Cc3cccc(C(F)(F)F)c3)ccn12                  %                    0
9  COc1cc2c(cc1OCCN1CCN(C)CC1)ncc1c3ccc(C#N)cc3[nH]c21                  %                    0
